biological target: autotaxin (ATX) (Homo sapiens, UniProt Q13822); construct: conditioned medium from the human melanoma cell line, MDA-MB-4355, which endogenously expresses autotaxin; serum-free conditioned medium, concentrated 20-fold; assay: Native Autotaxin Choline Release Assay; settings: autotaxin in conditioned medium from human melanoma cell line; choline released from LPC; read-out: MDA-MB-435S Assay IC50
measurement-type: IC50

**Query** Form entry - test system: autotaxin (ATX) (Homo sapiens, UniProt Q13822); read-out: IC50; molecule: CCCn1cc(-n2c(C)c(Sc3cccc(C(=O)O)c3F)c3ccc(Cl)cc32)cn1
**Result** < 0.3 µM

**Query** Form entry - test system: autotaxin (ATX) (Homo sapiens, UniProt Q13822); read-out: IC50; molecule: Cc1[nH]c2ccccc2c1Sc1cccc(CC(=O)O)c1
**Result** > 1 µM

**Query** Form entry - test system: autotaxin (ATX) (Homo sapiens, UniProt Q13822); read-out: IC50; molecule: Cc1c(Sc2cccc(CC(=O)O)c2)c2ccccc2n1C
**Result** > 1 µM

**Query** Form entry - test system: autotaxin (ATX) (Homo sapiens, UniProt Q13822); read-out: IC50; molecule: COc1c(C)cnc(Cn2c(C)c(Sc3cccc(C(=O)O)c3)c3ccc(Cl)cc32)c1C
**Result** < 0.3 µM

**Query** Form entry - test system: autotaxin (ATX) (Homo sapiens, UniProt Q13822); read-out: IC50; molecule: CCCn1cc(-n2c(C)c(Sc3cccc(C(=O)O)c3)c3ccc(Cl)cc32)cn1
**Result** < 0.3 µM

**Query** Form entry - test system: autotaxin (ATX) (Homo sapiens, UniProt Q13822); read-out: IC50; molecule: Cc1cc(-n2c(C)c(Sc3cccc(C(=O)O)c3)c3ccc(Cl)c(F)c32)cs1
**Result** < 0.3 µM

**Query** Form entry - test system: autotaxin (ATX) (Homo sapiens, UniProt Q13822); read-out: IC50; molecule: Cc1ccc(-n2cc(-n3c(C)c(Sc4cccc(C(=O)O)c4)c4ccc(Cl)cc43)cn2)cc1
**Result** < 0.3 µM

**Query** Form entry - test system: autotaxin (ATX) (Homo sapiens, UniProt Q13822); read-out: IC50; molecule: Cc1cncc(-n2c(C)c(Sc3cccc(C(=O)O)c3F)c3ccc(Cl)cc32)c1
**Result** < 0.3 µM

----------
molecular target: autotaxin (ATX) (Homo sapiens); construct: conditioned medium from the human melanoma cell line, MDA-MB-4355, which endogenously expresses autotaxin; serum-free conditioned medium, concentrated 20-fold; assay: Native Autotaxin Choline Release Assay; conditions: autotaxin in conditioned medium from human melanoma cell line; choline released from LPC; read-out: MDA-MB-435S Assay IC50
pIC50: −log10 of the molar value.
measurement-type: pIC50

**Query** Look at this compound and give its reported pIC50. CCCn1cc(-n2c(C)c(Sc3cccc(C(=O)NS(=O)(=O)c4ccccc4)c3F)c3ccc(Cl)c(F)c32)cn1
**Result** > 6.52

**Query** Look at this compound and give its reported pIC50. Cc1c(Sc2cccc(C(=O)O)c2)c2ccc(Cl)cc2n1-c1cccnc1
**Result** > 6.52

**Query** Look at this compound and give its reported pIC50. Cc1c(Sc2cccc(C(=O)O)c2)c2ccc(Cl)cc2n1-c1ccc(-c2ccccc2)cc1
**Result** 6.00 to 6.52

**Query** Look at this compound and give its reported pIC50. Cc1c(Sc2ccccc2CC(=O)O)c2ccc(Cl)cc2n1C
**Result** < 6.00

**Query** Look at this compound and give its reported pIC50. Cc1c(Sc2cccc(C(=O)O)c2)c2ccc(Cl)c(F)c2n1-c1cnn(C(C)C)c1
**Result** > 6.52

**Query** Look at this compound and give its reported pIC50. Cc1c(Sc2cccc(CC(=O)O)c2)c2ccc(Cl)cc2n1CC(C)C
**Result** < 6.00

**Query** Look at this compound and give its reported pIC50. Cc1c(Sc2cccc(C(=O)O)c2)c2ccc(Cl)cc2n1C(C)c1ccccc1 (centres unmarked)
**Result** < 6.00

**Query** Look at this compound and give its reported pIC50. Cc1c(Sc2cccc(C(=O)O)c2)c2ccc(Cl)c(F)c2n1-c1cnn(-c2ccccc2)c1
**Result** > 6.52
